These entries and their values trace back to ChEMBL document CHEMBL3885881.

ABSOLUTE LYMPHOCYTE: recorded values
Organism: Rattus norvegicus
Test: DrugMatrix - Regimen: Daily Repeat
Assay type: toxicity, organism-based, Sprague-Dawley
Parameters: regimen Daily Repeat, gender Male, age 6-8 weeks
Test settings: in vivo, po, 0 mg/kg, 120 h, tissue Blood, route oral GAVAGE, dose level Control, time 5 day, […]

Compound	Result units	ABSOLUTE LYMPHOCYTE
OCCN1CCN(CCCN2c3ccccc3Sc3ccc(C(F)(F)F)cc32)CC1 [FLUPHENAZINE]	CELLS/uL	10431
CCn1cc(C(=O)O)c(=O)c2cc(F)c(N3CCNCC3)nc21 [ENOXACIN]	CELLS/uL	15021.67
C#C[C@]1(O)CC[C@H]2[C@@H]3CCc4cc(O)ccc4[C@H]3CC[C@@]21C [ETHINYL ESTRADIOL]	CELLS/uL	15021.67
NC[C@@H]1O[C@H](O[C@H]2[C@@H](O)[C@H](O[C@@H]3[C@@H](O)[C@H](N)C[C@H](N)[C@H]3O[C@H]3O[C@H](CN)[C@@H](O)[C@H](O)[C@H]3N)O[C@@H]2CO)[C@H](N)[C@@H](O)[C@@H]1O [FRAMYCETIN]	CELLS/uL	9629.83

---

Species on record: Rattus norvegicus
Test: DrugMatrix - Regimen: Daily Repeat
Assay type: toxicity, organism-based, Sprague-Dawley
Design: regimen Daily Repeat, gender Male, age 6-8 weeks
Test settings: in vivo, po, 0 mg/kg, 72 h, tissue Blood, route oral GAVAGE, dose level Control, time 3 day, vehicle 100 % WATER
ABSOLUTE SEGMENTED NEUTROPHIL: recorded values

Compound	ABSOLUTE SEGMENTED NEUTROPHIL (CELLS/uL)
CCCCCCCCCCCCCCCC[n+]1ccccc1.[Br-]	815.33
CC[C@H]1OC(=O)[C@H](C)[C@@H](O[C@H]2C[C@@](C)(OC)[C@@H](O)[C@H](C)O2)[C@H](C)[C@@H](O[C@@H]2O[C@H](C)C[C@H](N(C)C)[C@H]2O)[C@](C)(O)C[C@@H](C)CN(C)[C@H](C)[C@@H](O)[C@]1(C)O	1220.33
O=P1(N(CCCl)CCCl)NCCCO1 (stereo not given) [CYCLOPHOSPHAMIDE ANHYDROUS]	817.83
CCN(CC)CC#CCOC(=O)C(O)(c1ccccc1)C1CCCCC1 (stereo not given)	2145
O=C(O)c1cccnc1	1008.5

---

Species on record: Rattus norvegicus
Test: DrugMatrix - Regimen: Daily Repeat
Format: toxicity, organism-based, Sprague-Dawley
Set-up: regimen Daily Repeat, gender Male, age 6-8 weeks
Test settings: in vivo, po, 0 mg/kg, 72 h, tissue Blood, route oral GAVAGE, dose level Control, time 3 day, vehicle 100 % WATER

Compound	HEMOGLOBIN
CC[C@H]1OC(=O)[C@H](C)[C@@H](O[C@H]2C[C@@](C)(OC)[C@@H](O)[C@H](C)O2)[C@H](C)[C@@H](O[C@@H]2O[C@H](C)C[C@H](N(C)C)[C@H]2O)[C@](C)(O)C[C@@H](C)CN(C)[C@H](C)[C@@H](O)[C@]1(C)O [AZITHROMYCIN]	12.83 G/DL
CC[C@H]1OC(=O)[C@H](C)[C@@H](O[C@H]2C[C@@](C)(OC)[C@@H](O)[C@H](C)O2)[C@H](C)[C@@H](O[C@@H]2O[C@H](C)C[C@H](N(C)C)[C@H]2O)[C@](C)(OC)C[C@@H](C)C(=O)[C@H](C)[C@@H](O)[C@]1(C)O [CLARITHROMYCIN]	13.45 G/DL
O=P1(N(CCCl)CCCl)NCCCO1 (configuration not stated) [CYCLOPHOSPHAMIDE ANHYDROUS]	13.17 G/DL
Cc1c(N(C)CS(=O)(=O)[O-])c(=O)n(-c2ccccc2)n1C.[Na+] [DIPYRONE SODIUM]	13.87 G/DL
Nc1ccc(S(=O)(=O)Nc2ncccn2)cc1 [SULFADIAZINE]	14.12 G/DL
O=C(O)c1cc(=O)c2c(OCC(O)COc3cccc4oc(C(=O)O)cc(=O)c34)cccc2o1 [CROMOLYN]	14.2 G/DL
Nc1ccc(S(=O)(=O)Nc2nccs2)cc1 [SULFATHIAZOLE]	13.33 G/DL
CCCc1nn(C)c2c(=O)[nH]c(-c3cc(S(=O)(=O)N4CCN(C)CC4)ccc3OCC)nc12	12.88 G/DL
O=C(O)c1cccnc1 [NIACIN]	12.98 G/DL
CCOC(N)=O	13.43 G/DL
OCCO [ETHYLENE GLYCOL]	12.88 G/DL
CNS(=O)(=O)Cc1ccc2[nH]cc(CCN(C)C)c2c1	13.83 G/DL

---

Species on record: Rattus norvegicus
Test: DrugMatrix - Regimen: Daily Repeat
Type: toxicity, organism-based, Sprague-Dawley
Design: regimen Daily Repeat, gender Male, age 6-8 weeks
Test settings: in vivo, po, 0 mg/kg, 120 h, tissue Blood, route oral GAVAGE, dose level Control, time 5 day, […]
HEMOGLOBIN: recorded values
Assay endpoint: HEMOGLOBIN (G/DL)

Molecule	Result number
CC(C)Cc1ccc(CC(=O)O)cc1 [IBUFENAC]	12.73
COc1ncnc(NS(=O)(=O)c2ccc(N)cc2)c1OC [SULFADOXINE]	13.5
CC(=O)Nc1nnc(S(N)(=O)=O)s1 [ACETAZOLAMIDE]	13.5
CN(CCOc1ccc(CC2SC(=O)NC2=O)cc1)c1ccccn1 (stereo unspecified) [ROSIGLITAZONE]	13.02
CS(=O)(=O)OCCCCOS(C)(=O)=O [BUSULFAN]	13.5
CC[C@H](C)C(=O)O[C@H]1C[C@@H](C)C=C2C=C[C@H](C)[C@H](CC[C@@H]3C[C@@H](O)CC(=O)O3)[C@H]21 [LOVASTATIN]	12.93
CC(C)OC(=O)C(C)(C)Oc1ccc(C(=O)c2ccc(Cl)cc2)cc1 [FENOFIBRATE]	13.5
CCn1cc(C(=O)O)c(=O)c2cc(F)c(N3CCNCC3)nc21 [ENOXACIN]	13.2
C#C[C@]1(O)CC[C@H]2[C@@H]3CCc4cc(O)ccc4[C@H]3CC[C@@]21C [ETHINYL ESTRADIOL]	13.2
OCCN1CCN(CCCN2c3ccccc3Sc3ccc(C(F)(F)F)cc32)CC1 [FLUPHENAZINE]	13.5
CC(CCc1ccc(O)cc1)NCCc1ccc(O)c(O)c1 (stereo unspecified) [DOBUTAMINE]	14.3

---

Species on record: Rattus norvegicus
Test: DrugMatrix - Regimen: Daily Repeat
Assay type: toxicity, organism-based, Sprague-Dawley
Parameters: regimen Daily Repeat, gender Male, age 6-8 weeks
Test settings: in vivo, po, 0 mg/kg, 72 h, tissue Plasma, route oral GAVAGE, dose level Control, time 3 day, vehicle .5 % CMC

Compound	PHOSPHORUS [mg/dL]
CC(=O)O[C@]1(C(C)=O)CC[C@H]2[C@@H]3C=C(Cl)C4=CC(=O)[C@@H]5C[C@@H]5[C@]4(C)[C@H]3CC[C@@]21C [CYPROTERONE ACETATE]	11.57
O=c1cc(-c2ccccc2)oc2ccc3ccccc3c12	12.67
Nc1cccc(Cl)c1	12.55
CCCCC1C(=O)N(c2ccccc2)N(c2ccccc2)C1=O	12.47
COc1ccc(/C=C/C(=O)Nc2ccccc2C(=O)O)cc1OC	12.25
C[C@@H](O)[C@H]1C(=O)N2C(C(=O)O)=C(S[C@@H]3CN[C@H](C(=O)N(C)C)C3)[C@H](C)[C@H]12	12.25
C=C(CC)C(=O)c1ccc(OCC(=O)O)c(Cl)c1Cl	10.52
COc1ccccc1OCC(O)COC(N)=O (centres undefined)	11.23
CCOC(=O)[C@H](CCc1ccccc1)N[C@@H](C)C(=O)N1Cc2ccccc2C[C@H]1C(=O)O	11.57
Clc1cc2c(cc1Cl)Oc1cc(Cl)c(Cl)cc1O2	12.67
CC[C@]1(O)CC[C@H]2[C@@H]3CCC4=CCCC[C@@H]4[C@H]3CC[C@@]21C	12.83
CC(C)(Sc1cc(C(C)(C)C)c(O)c(C(C)(C)C)c1)Sc1cc(C(C)(C)C)c(O)c(C(C)(C)C)c1	12.25
CC(C(=O)O)c1ccc(-c2ccccc2)c(F)c1 (centres undefined)	12.25
CN1C(=O)CN=C(c2ccccc2)c2cc(Cl)ccc21	11.67

---

CHLORIDE: recorded values
Species on record: Rattus norvegicus
Test: DrugMatrix - Regimen: Daily Repeat
Type: toxicity, organism-based, Sprague-Dawley
Parameters: regimen Daily Repeat, gender Male, age 6-8 weeks
Test settings: in vivo, po, 0 mg/kg, 120 h, tissue Plasma, route oral GAVAGE, dose level Control, time 5 day, vehicle 100 % WATER
Assay endpoint: CHLORIDE (MEQ/L)

Compound	Result number
CCN(CC)CC#CCOC(=O)C(O)(c1ccccc1)C1CCCCC1 (configuration not stated) [OXYBUTYNIN]	99.5
Nc1ccc(S(=O)(=O)Nc2nccs2)cc1 [SULFATHIAZOLE]	100.83
O=C(O)c1cc(=O)c2c(OCC(O)COc3cccc4oc(C(=O)O)cc(=O)c34)cccc2o1 [CROMOLYN]	106.17
OCCO [ETHYLENE GLYCOL]	98.33
O=C(O)c1cccnc1 [NIACIN]	101.83
CC(C)(C)NC[C@H](O)COc1nsnc1N1CCOCC1 [TIMOLOL]	100.83
CCCc1nn(C)c2c(=O)[nH]c(-c3cc(S(=O)(=O)N4CCN(C)CC4)ccc3OCC)nc12	98.33
CC[C@H]1OC(=O)[C@H](C)[C@@H](O[C@H]2C[C@@](C)(OC)[C@@H](O)[C@H](C)O2)[C@H](C)[C@@H](O[C@@H]2O[C@H](C)C[C@H](N(C)C)[C@H]2O)[C@](C)(OC)C[C@@H](C)C(=O)[C@H](C)[C@@H](O)[C@]1(C)O [CLARITHROMYCIN]	98
CC[C@H]1OC(=O)[C@H](C)[C@@H](O[C@H]2C[C@@](C)(OC)[C@@H](O)[C@H](C)O2)[C@H](C)[C@@H](O[C@@H]2O[C@H](C)C[C@H](N(C)C)[C@H]2O)[C@](C)(O)C[C@@H](C)CN(C)[C@H](C)[C@@H](O)[C@]1(C)O [AZITHROMYCIN]	97
CCN[C@@H](C)Cc1cccc(C(F)(F)F)c1 [DEXFENFLURAMINE]	101.67
CNS(=O)(=O)Cc1ccc2[nH]cc(CCN(C)C)c2c1	101.5
O=P1(N(CCCl)CCCl)NCCCO1 (configuration not stated) [CYCLOPHOSPHAMIDE ANHYDROUS]	99.75
Cc1c(N(C)CS(=O)(=O)[O-])c(=O)n(-c2ccccc2)n1C.[Na+] [DIPYRONE SODIUM]	99.33
CCOC(N)=O	101.5
CCCCCCCCCCCCCCCC[n+]1ccccc1.[Br-]	99.67
Nc1ccc(S(=O)(=O)Nc2ncccn2)cc1 [SULFADIAZINE]	101.67
CN1C2CCCC1CC(NC(=O)c1nn(C)c3ccccc13)C2 (configuration not stated) [GRANISETRON]	100.83
